# target-or-system: CYP2C19 (Homo sapiens)
# Sequence (P33261 whole entry): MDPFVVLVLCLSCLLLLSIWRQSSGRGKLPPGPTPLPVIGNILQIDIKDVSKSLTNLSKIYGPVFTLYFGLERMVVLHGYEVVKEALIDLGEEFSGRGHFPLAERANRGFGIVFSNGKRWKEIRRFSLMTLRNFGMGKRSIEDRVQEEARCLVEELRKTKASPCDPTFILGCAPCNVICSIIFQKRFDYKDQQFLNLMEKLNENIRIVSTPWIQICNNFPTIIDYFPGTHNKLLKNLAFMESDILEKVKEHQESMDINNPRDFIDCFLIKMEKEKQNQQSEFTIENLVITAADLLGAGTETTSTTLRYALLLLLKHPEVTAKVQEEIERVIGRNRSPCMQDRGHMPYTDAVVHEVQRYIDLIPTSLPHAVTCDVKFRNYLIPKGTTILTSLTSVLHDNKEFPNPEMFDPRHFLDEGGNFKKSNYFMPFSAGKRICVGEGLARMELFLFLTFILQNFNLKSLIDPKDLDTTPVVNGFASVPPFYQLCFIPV
endpoint-label: IC50

[[record]]
compound_smiles = "Cc1ncccc1Oc1ncnc(OC2CCN(C(=O)OC(C)C)CC2)c1C"
endpoint_label = "IC50"
value_observed = "~10 µM"


====

# procedure-details: Solubility determination in water (HPLC)
# Assay type: physicochemical
# details: thermodynamic from solid, about 25° C., equilibrated no less than 12 hours, read-out: aqueous solubility
endpoint-label: solubility

[[record]]
compound_smiles = "Cc1ncccc1Oc1ncnc(OC2CCN(C(=O)OC(C)C)CC2)c1C"
endpoint_label = "solubility"
value_observed = "~40 mg/mL"

